System: IL-6 production in IL-1-stimulated PBMCs
assayText: Inhibition of IL-6 production in IL-1-stimulated PBMCs
Type: cell-based
conditionLabel: Homo sapiens, PBMC; IL-1b-stimulated PBMCs, ELISA, overnight incubation
measuredMetric: pIC50
Hey, just a heads up that pIC50 is the negative log base 10 of the concentration in molar.

Req: State its pIC50 on IL-6 production in IL-1-stimulated PBMCs: "O=c1ncn2nc(Sc3ccccc3)ccc2c1-c1c(Cl)cccc1Cl"
Resp: 6.22

###

systemTested: activated p38 (Homo sapiens)
Sequence (Q16539 whole entry): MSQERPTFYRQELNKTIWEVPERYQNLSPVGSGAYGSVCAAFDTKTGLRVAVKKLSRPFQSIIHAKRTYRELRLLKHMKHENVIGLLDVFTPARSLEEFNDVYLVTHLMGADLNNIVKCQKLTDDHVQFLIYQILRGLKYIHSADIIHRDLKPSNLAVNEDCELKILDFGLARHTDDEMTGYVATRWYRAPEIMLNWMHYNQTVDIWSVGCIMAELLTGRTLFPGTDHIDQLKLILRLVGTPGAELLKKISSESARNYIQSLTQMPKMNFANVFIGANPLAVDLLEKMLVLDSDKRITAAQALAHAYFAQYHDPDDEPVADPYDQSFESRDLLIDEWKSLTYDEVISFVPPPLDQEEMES
assayText: Inhibition of phosphorylation of EGF receptor peptide ("kinase")
conditionLabel: inhibition of phosphorylation of EGF receptor peptide by activated p38
pIC50: −log10 of the molar value.
measuredMetric: pIC50

Req: What value of pIC50 has been reported for the following compound? CC(C)(C)OC(=O)Nc1ccccc1SC1=NN2CNC(=O)C(c3c(Cl)cccc3Cl)=C2C=C1 [Compound 112]
Resp: 6.00 to 7.00

Req: Again, but for COCOc1cc(F)ccc1-c1cccc(C(C(N)=O)c2c(Cl)cccc2Cl)n1 (centres unmarked) [Compound 389]
Resp: 6.00 to 7.00

Req: Moving on to Cc1cc(Sc2ccc3c(-c4c(Cl)cccc4Cl)c(=O)ncn3n2)c(Cl)cc1F [Compound 41]
Resp: ≥ 7.00

Req: Do the same for NC(=O)C(c1cccc(-c2cccc(C(F)(F)F)c2)n1)c1c(Cl)cccc1Cl (centres unmarked) [Compound 379] please
Resp: ≥ 7.00

Req: Now consider NCc1ccccc1SC1=NN2CNC(=O)C(c3c(Cl)cccc3Cl)=C2C=C1 [Compound 118] and answer again.
Resp: 6.00 to 7.00

Req: Next: COc1cc(Cl)c(C2=C3C=CC(Sc4ccc(F)cc4)=NN3CNC2=O)cc1O [Compound 135]
Resp: ≥ 7.00

Req: Next record, please: O=C1NCN2N=C(Sc3ccc(F)cc3Cl)C=CC2=C1c1cc2c(cc1Cl)OCO2 [Compound 136]
Resp: ≥ 7.00

Req: Next compound up: NC(=O)C(c1cccc(-c2ccc(Cl)cc2)n1)c1c(Cl)cccc1Cl (centres unmarked) [Compound 310]
Resp: 6.00 to 7.00

Req: Also NC(=O)C(c1cccc(-c2ccc(F)cc2C(F)(F)F)n1)c1c(Cl)cccc1Cl (centres unmarked) [Compound 391] ?
Resp: 6.00 to 7.00

Req: Follow-up entry: Cc1ccc(SC2=NN3CNC(=O)C(c4c(Cl)cccc4Cl)=C3C=C2)c(C)c1 [Compound 113]
Resp: ≥ 7.00

Req: Follow-up item: NC(=O)C(c1cccc(-c2cc3ccccc3o2)n1)c1c(Cl)cccc1Cl (centres unmarked) [Compound 355]
Resp: ≤ 6.00

Req: Try this compound too: Cc1c(Cl)cccc1-c1cccc(C(C(N)=O)c2c(Cl)cccc2Cl)n1 (centres unmarked) [Compound 1301]
Resp: ≥ 7.00

Req: Likewise for NC(=O)C(c1cccc(-c2ccccc2CNCCO)n1)c1c(Cl)cccc1Cl (centres unmarked) [Compound 351] ?
Resp: ≤ 6.00

Req: Try this compound too: CC(C)c1ccccc1Sc1ccc2c(-c3c(Cl)cccc3Cl)c(=O)ncn2n1 [Compound 18]
Resp: ≤ 6.00

Req: Now give it for NC(=O)C(c1cccc(-c2ccccc2C=O)n1)c1c(Cl)cccc1Cl (centres unmarked) [Compound 327] too.
Resp: 6.00 to 7.00

Req: Please answer likewise for COc1ccc(-c2c(=O)ncn3nc(Sc4ccccc4)ccc23)cc1 [Compound 10]
Resp: ≤ 6.00

Req: Repeat for the following compound: Nc1ccc(F)c(C2=C3C=CC(Sc4ccc(F)cc4)=NN3CNC2=O)c1Cl [Compound 132]
Resp: ≥ 7.00
